Molecular target: Prostaglandin G/H synthase 2 (Homo sapiens) (UniProt P35354)
Sequence (P35354 whole entry): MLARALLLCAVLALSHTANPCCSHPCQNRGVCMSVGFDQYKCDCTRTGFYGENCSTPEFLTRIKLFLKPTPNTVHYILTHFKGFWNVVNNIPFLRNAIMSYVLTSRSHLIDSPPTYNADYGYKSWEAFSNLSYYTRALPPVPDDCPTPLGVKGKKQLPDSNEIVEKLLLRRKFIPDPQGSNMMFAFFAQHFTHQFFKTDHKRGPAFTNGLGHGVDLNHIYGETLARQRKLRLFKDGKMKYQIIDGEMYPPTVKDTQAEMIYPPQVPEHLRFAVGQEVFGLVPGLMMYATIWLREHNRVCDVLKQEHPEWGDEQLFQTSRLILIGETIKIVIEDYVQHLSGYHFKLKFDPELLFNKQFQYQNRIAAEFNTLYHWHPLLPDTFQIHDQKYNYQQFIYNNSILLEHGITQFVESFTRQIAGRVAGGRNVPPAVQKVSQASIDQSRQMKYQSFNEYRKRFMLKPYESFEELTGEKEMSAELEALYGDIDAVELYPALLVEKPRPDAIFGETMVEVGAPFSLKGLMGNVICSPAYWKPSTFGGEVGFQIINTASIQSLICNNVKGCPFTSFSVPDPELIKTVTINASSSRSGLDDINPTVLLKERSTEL
Experiment: Inhibition of LPS-stimulated human whole blood COX-2 assessed as inhibition of PGE2 production at 100 uM by EIA
I'd appreciate it if you could supply inhibition values for the items below.
# answer = value followed by unit

Note down inhibition recorded for CC(C(=O)O)c1ccc(N[C@H]2CCCC[C@@H]2O)cc1F (some centres not stated)
76.7%

Identify measured inhibition corresponding to CC(C(=O)O)c1ccc(OC2CCCC2)cc1F (configuration not stated)
96.4%

Specify reported inhibition for the molecule shown: CC(C(=O)O)c1c(F)cc(CC2CCCC2=O)cc1-c1ccc(O)cc1 (configuration not stated)
38%

Given the molecule CC(C(=O)O)c1ccc(Cc2ccsc2)cc1F (configuration not stated) , write its reported inhibition.
99.5%

For the molecule CC(C(=O)O)c1ccc(N[C@H]2CCC[C@@H]2O)cc1F (some centres not stated) , report inhibition.
77.6%

Output inhibition of CC(C(=O)O)c1ccc(Cc2ccoc2)cc1F (configuration not stated)
90.9%

Kindly indicate its recorded inhibition. Item: CC(C(=O)O)c1cc(F)c(CC2CCCC2=O)cc1F (configuration not stated)
84.8%

Give the reported value of inhibition for this record: CC(C(=O)O)c1ccc(O[C@H]2CCC[C@@H]2O)cc1F (some centres not stated)
80.2%

Quick one: give measured inhibition for CC(C(=O)O)c1ccc(SC2CCCC2=O)cc1F (configuration not stated)
93.1%

Please indicate inhibition recorded for CC(C(=O)O)c1ccc(NC2CCCC2)cc1F (configuration not stated)
91.9%

Fill in reported inhibition for this entry: CC(C(=O)O)c1c(F)cc(CC2CCCC2=O)cc1Br (configuration not stated)
0%

Using the record for CCC(Cc1ccc(C(C)C(=O)O)c(F)c1)C(C)=O (configuration not stated) , state its measured inhibition.
82.2%

Recall and state the measured inhibition for CC(C(=O)O)c1ccc(NC2CCCCC2)cc1F (configuration not stated) .
30%

Identify measured inhibition associated with CCC(=O)C(C)Cc1ccc(C(C)C(=O)O)c(F)c1 (configuration not stated)
0%

Given the molecule CC(C(=O)O)c1ccc(CC2CCCC2=O)cc1 (configuration not stated) [LOXOPROFEN] , write its reported inhibition.
97.4%

# return recorded inhibition for entry CC(C(=O)O)c1ccc(SC2CCCC2)cc1F (configuration not stated)
80.1%

Give recorded inhibition. CC(C(=O)O)c1ccc(Cc2ccco2)cc1F (configuration not stated)
96.1%

Given the molecule CC(C(=O)O)c1ccc(OC2CCCC2=O)cc1F (configuration not stated) , write its reported inhibition.
82.5%

For the molecule CC(C(=O)O)c1ccc(Cc2cccs2)cc1F (configuration not stated) , give its measured inhibition value.
89.2%

Please list inhibition recorded for the molecule CC(C(=O)O)c1ccc(S[C@H]2CCC[C@@H]2O)cc1F (some centres not stated)
64.4%

Supply measured inhibition of CC(C(=O)O)c1ccc(CC2CCCC2=O)cc1F (configuration not stated) in your reply.
81.8%

Identify measured inhibition corresponding to CC(C(=O)O)c1c(F)cc(CC2CCCC2=O)cc1F (configuration not stated)
70.9%

* * *

Provide the reported inhibition of each item.
Biological target: Prostaglandin G/H synthase 1 (Homo sapiens)
Experiment: Inhibition of human whole blood COX-1 assessed as inhibition of TXB2 production at 100 uM by EIA
State just the number; it will be interpreted in %.

# return recorded inhibition for input CC(C(=O)O)c1ccc(Cc2ccsc2)cc1F (stereo not drawn)
87.4

Please look at this compound and report its inhibition: CCC(=O)C(C)Cc1ccc(C(C)C(=O)O)c(F)c1 (stereo not drawn)
13.5

Give inhibition for CC(C(=O)O)c1cc(F)c(CC2CCCC2=O)cc1F (stereo not drawn)
81

* * *

Test system: Rattus norvegicus
Test: Toxicity in rat assessed as gastric ulcerogenic activity at 0.37 to 7.45 mM/kg, po measured after 8 hrs
Type: organism-based, Stomach
Conditions: in vivo
MEASURE NAME: Activity

Answered cases to consult:
CC(C(=O)O)c1ccc(NC2CCCC2)cc1F (configuration not stated) ... Non-toxic
CC(C(=O)O)c1ccc(Cc2ccsc2)cc1F (configuration not stated) ... Toxic
CC(C(=O)O)c1ccc(CC2CCCC2=O)cc1F (configuration not stated) ... Non-toxic
CC(C(=O)O)c1ccc(CC2CCCC2=O)cc1 (configuration not stated) [LOXOPROFEN] ... Toxic
CC(C(=O)O)c1ccc(OC2CCCC2)cc1F (configuration not stated) ... Non-toxic
CC(C(=O)O)c1ccc(Cc2ccco2)cc1F (configuration not stated) ... Non-toxic

Switching to the query record.
// output Activity; input CC(C(=O)O)c1ccc(Cc2ccoc2)cc1F (configuration not stated) ; system Rattus norvegicus
Non-toxic

* * *

Kindly state inhibition for each of the entries shown.
Target: Prostaglandin G/H synthase 1 (Homo sapiens)
Assay: Inhibition of human whole blood COX-1 assessed as inhibition of TXB2 production at 100 uM by EIA
Numbers only; they are read as %.

Output measured inhibition for this item: CC(C(=O)O)c1ccc(SC2CCCC2)cc1F (stereo not drawn)
87.9

For CC(C(=O)O)c1ccc(SC2CCCC2=O)cc1F (stereo not drawn) , write its inhibition.
60.7

Tell me inhibition reported for CC(C(=O)O)c1ccc(OC2CCCC2)cc1F (stereo not drawn)
81.4

State, in one line, measured inhibition of CC(C(=O)O)c1ccc(NC2CCCCC2)cc1F (stereo not drawn)
0

State, in one line, measured inhibition of CC(C(=O)O)c1c(F)cc(CC2CCCC2=O)cc1-c1ccc(O)cc1 (stereo not drawn)
7.2

Hello, please tell me recorded inhibition for this one: CC(C(=O)O)c1ccc(N[C@H]2CCC[C@@H]2O)cc1F (stereo partly drawn)
83.4

Identify the reported inhibition for the following entry. CC(C(=O)O)c1ccc(CC2CCCC2=O)cc1 (stereo not drawn)
87.5

Using known records, supply inhibition for CC(C(=O)O)c1ccc(Cc2cccs2)cc1F (stereo not drawn)
76.5

Return inhibition (reported value) for this molecule: CC(C(=O)O)c1c(F)cc(CC2CCCC2=O)cc1Br (stereo not drawn)
49.7

Complete the entry with inhibition for CCC(Cc1ccc(C(C)C(=O)O)c(F)c1)C(C)=O (stereo not drawn)
98.1

Return value of inhibition for input CC(C(=O)O)c1ccc(CC2CCCC2=O)cc1F (stereo not drawn) , no commentary.
85.7

State its inhibition for this molecule: CC(C(=O)O)c1ccc(OC2CCCC2=O)cc1F (stereo not drawn)
82.3

Look up inhibition of CC(C(=O)O)c1ccc(Cc2ccco2)cc1F (stereo not drawn) and report it.
79.9

* * *

Target: Prostaglandin G/H synthase 1 (Homo sapiens, UniProt P23219)
Sequence (P23219 whole entry): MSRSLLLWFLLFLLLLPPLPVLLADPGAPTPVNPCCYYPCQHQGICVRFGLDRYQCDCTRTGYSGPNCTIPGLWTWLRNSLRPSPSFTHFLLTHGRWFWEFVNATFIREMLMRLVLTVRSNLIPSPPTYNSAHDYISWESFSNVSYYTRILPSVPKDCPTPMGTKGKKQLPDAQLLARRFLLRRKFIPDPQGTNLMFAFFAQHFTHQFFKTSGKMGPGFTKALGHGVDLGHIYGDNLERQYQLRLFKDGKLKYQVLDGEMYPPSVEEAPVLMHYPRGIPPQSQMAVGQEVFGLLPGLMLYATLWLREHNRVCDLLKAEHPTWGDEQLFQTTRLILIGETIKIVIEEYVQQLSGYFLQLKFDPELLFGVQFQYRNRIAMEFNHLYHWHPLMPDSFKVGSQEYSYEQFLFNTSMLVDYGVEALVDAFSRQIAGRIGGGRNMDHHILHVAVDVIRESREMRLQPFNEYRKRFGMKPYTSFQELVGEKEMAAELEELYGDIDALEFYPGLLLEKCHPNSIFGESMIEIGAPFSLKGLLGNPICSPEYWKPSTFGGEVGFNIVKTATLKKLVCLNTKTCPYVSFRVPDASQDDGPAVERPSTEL
Experiment: Inhibition of human whole blood COX-1 assessed as inhibition of TXB2 production at 10 uM by EIA
Label condition met for high-side inhibition (at or above 40%) and condition not met for low-side inhibition (below it).

Evaluate CCC(Cc1ccc(C(C)C(=O)O)c(F)c1)C(C)=O (configuration not stated) : inhibition at minimum 40%?
condition met

# check: inhibition of CC(C(=O)O)c1ccc(NC2CCCCC2)cc1F (configuration not stated) is greater than or equal to 40%
condition not met

Is reported inhibition greater than or equal to 40% here: CC(C(=O)O)c1ccc(N[C@H]2CCC[C@@H]2O)cc1F (some centres not stated)
condition met

Hi, just wondering whether CC(C(=O)O)c1ccc(OC2CCCC2)cc1F (configuration not stated) shows inhibition of 40% or higher.
condition met

API: above_or_equal(metric=inhibition, cutoff=40%) for item CC(C(=O)O)c1ccc(SC2CCCC2=O)cc1F (configuration not stated)
condition not met

API: above_or_equal(metric=inhibition, cutoff=40%) for item CC(C(=O)O)c1ccc(Cc2cccs2)cc1F (configuration not stated)
condition not met

Hi team, for CC(C(=O)O)c1ccc(CC2CCCC2=O)cc1 (configuration not stated) , is the recorded inhibition at or above 40%?
condition not met

Does the compound CC(C(=O)O)c1ccc(Cc2ccoc2)cc1F (configuration not stated) have recorded inhibition that is 40% or more?
condition not met

Reported inhibition reaches at least 40% for CC(C(=O)O)c1ccc(OC2CCCC2=O)cc1F (configuration not stated) ?
condition met

Is inhibition for CC(C(=O)O)c1ccc(N[C@H]2CCCC[C@@H]2O)cc1F (some centres not stated) at or above 40%?
condition not met

Form field: inhibition at least 40%? Entry: CC(C(=O)O)c1ccc(CC2CCCC2=O)cc1F (configuration not stated)
condition not met

hey, is inhibition for this one >= 40%? CCC(=O)C(C)Cc1ccc(C(C)C(=O)O)c(F)c1 (configuration not stated)
condition not met

* * *

Molecular target: Prostaglandin G/H synthase 1 (Homo sapiens)
Assay: Inhibition of human whole blood COX-1 assessed as inhibition of TXB2 production by EIA
MEASURE NAME: IC50 (µM)
Value expressed in µM; do not type the unit.

Read the entry CC(C(=O)O)c1ccc(Cc2ccoc2)cc1F (stereo not drawn) and write its reported IC50.
30.1

Name the recorded IC50 of the compound listed here: CC(C(=O)O)c1ccc(N[C@H]2CCC[C@@H]2O)cc1F (stereo partly drawn)
9

Please give measured IC50 of the following entry: CC(C(=O)O)c1ccc(Cc2cccs2)cc1F (stereo not drawn)
19.9

Let me know recorded IC50 for CC(C(=O)O)c1ccc(NC2CCCC2)cc1F (stereo not drawn) , thanks.
15.6

Please report IC50 for the following compound: CC(C(=O)O)c1ccc(Cc2ccsc2)cc1F (stereo not drawn)
9.5

Give IC50 for CC(C(=O)O)c1ccc(OC2CCCC2)cc1F (stereo not drawn)
3

Quickly give me recorded IC50 for CC(C(=O)O)c1ccc(Cc2ccco2)cc1F (stereo not drawn)
21.6

Supply recorded IC50 for CC(C(=O)O)c1ccc(OC2CCCC2=O)cc1F (stereo not drawn) here.
1.5
